# targetEntity: J2 IgG heavy chain (HC-TEV-His8) Y50F;J2 IgG light chain (Mus musculus;Mus musculus, UniProt ; ;, Y50F|)
# Sequence (chain, as listed by the source Y50F| | Y50F Y50F, chain 1 of 2): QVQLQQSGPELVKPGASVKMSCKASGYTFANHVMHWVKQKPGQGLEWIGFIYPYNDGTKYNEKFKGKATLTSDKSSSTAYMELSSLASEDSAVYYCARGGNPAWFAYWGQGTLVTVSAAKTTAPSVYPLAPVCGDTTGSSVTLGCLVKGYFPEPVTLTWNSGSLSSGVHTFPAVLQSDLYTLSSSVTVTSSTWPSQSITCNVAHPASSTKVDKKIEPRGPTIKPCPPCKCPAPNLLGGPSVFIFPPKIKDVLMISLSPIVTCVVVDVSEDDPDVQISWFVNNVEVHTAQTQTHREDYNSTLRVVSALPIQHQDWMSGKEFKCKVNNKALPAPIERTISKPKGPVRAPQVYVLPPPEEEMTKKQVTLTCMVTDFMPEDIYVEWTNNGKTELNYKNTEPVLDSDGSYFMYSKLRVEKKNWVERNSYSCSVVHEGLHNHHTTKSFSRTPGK
# Sequence (chain, as listed by the source Y50F| | Y50F Y50F, chain 2 of 2): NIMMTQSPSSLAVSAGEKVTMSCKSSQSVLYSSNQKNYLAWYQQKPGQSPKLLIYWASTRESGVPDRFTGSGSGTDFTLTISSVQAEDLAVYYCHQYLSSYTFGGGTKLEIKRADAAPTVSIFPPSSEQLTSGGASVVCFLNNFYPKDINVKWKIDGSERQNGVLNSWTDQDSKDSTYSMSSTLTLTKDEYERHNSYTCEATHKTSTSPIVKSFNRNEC
# testName: BLI; 100 mM KCl; BLI: 25 mM Tris-HCl pH 7.5, 2 mM MgCl2, KCl 100 mM (6-20 bp and mutants), 200 mM (30 bp) or 400 mM (40, 50 bp), 25 C; IgG immobilised on Protein A probes
# experimentalConditions: protein: recombinant;recombinant; tags: His8 (C-term);; chain copies: 2;2; blunt
parameter: pKd
By convention, pKd is the negative base-10 log of a molar concentration.

// lookup pKd for 20-bp dsRNA (dsRNA) RNA 1: GUUGUAAAGAAGGUCAAUAU RNA 2: AUAUUGACCUUCUUUACAAC 6.37
